Measured Emax values are reported for all entries that follow.
study-system: κ-opioid receptor (Homo sapiens, UniProt P41145)
Sequence (P41145 whole entry): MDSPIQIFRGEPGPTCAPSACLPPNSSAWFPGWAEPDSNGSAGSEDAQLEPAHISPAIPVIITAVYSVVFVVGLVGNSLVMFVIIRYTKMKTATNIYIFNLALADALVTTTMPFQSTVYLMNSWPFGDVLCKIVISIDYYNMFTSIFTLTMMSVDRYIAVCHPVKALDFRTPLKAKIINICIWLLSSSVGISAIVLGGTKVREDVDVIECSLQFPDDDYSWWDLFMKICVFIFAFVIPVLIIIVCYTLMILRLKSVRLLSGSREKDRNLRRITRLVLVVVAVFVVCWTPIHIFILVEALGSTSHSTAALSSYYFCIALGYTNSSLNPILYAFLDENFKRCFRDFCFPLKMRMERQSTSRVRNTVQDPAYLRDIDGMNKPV
test-protocol: κ-opioid receptor [35S]GTPγS functional assay, HEK-293 or CHO cells
Format: biochemical
Set-up: expressed in transfected cells; host or cells: HEK-293
experimental-context: HEK-293 or CHO cells; relative to U69,593
readout-label: Emax

compound="CC(C)C[C@H](NCCCC[C@]12CCN(CC3CC3)[C@H](Cc3ccc(O)cc31)[C@@H]2C)C(=O)O [Compound 24]" readout_label=Emax result=102%
compound="COc1ccc2c(c1)[C@@]1(CCOCc3ccccc3)CCN(CC3CC3)[C@@H](C2)[C@H]1C [Compound 44]" readout_label=Emax result=32%
compound="COc1ccc2c(c1)[C@]1(CCOCc3ccccc3)CCN(CC3CC3)[C@H](C2)[C@@H]1C [Compound 45]" readout_label=Emax result=104%
compound="COC(=O)c1ccc(CC(=O)NCC[C@]23CCN(CC4CC4)[C@H](Cc4ccc(OC)cc42)[C@@H]3C)cc1 [Compound 30]" readout_label=Emax result=83%
compound="COC(=O)[C@H](CCCCN)NCCCC[C@]12CCN(CC3CC3)[C@H](Cc3ccc(O)cc31)[C@@H]2C [Compound 26]" readout_label=Emax result=51%
compound="C[C@H]1[C@H]2Cc3ccc(O)cc3[C@]1(CCCC(N)=O)CCN2CC1CCC1 [Compound 29]" readout_label=Emax result=87.7%
compound="COc1ccc2c(c1)[C@]1(CCNC3(C(=O)O)CC3)CCN(CC3CC3)[C@H](C2)[C@@H]1C [Compound 34]" readout_label=Emax result=81.3%

====

study-system: μ-opioid receptor (Homo sapiens, UniProt P35372)
Sequence (P35372 whole entry, species assumed): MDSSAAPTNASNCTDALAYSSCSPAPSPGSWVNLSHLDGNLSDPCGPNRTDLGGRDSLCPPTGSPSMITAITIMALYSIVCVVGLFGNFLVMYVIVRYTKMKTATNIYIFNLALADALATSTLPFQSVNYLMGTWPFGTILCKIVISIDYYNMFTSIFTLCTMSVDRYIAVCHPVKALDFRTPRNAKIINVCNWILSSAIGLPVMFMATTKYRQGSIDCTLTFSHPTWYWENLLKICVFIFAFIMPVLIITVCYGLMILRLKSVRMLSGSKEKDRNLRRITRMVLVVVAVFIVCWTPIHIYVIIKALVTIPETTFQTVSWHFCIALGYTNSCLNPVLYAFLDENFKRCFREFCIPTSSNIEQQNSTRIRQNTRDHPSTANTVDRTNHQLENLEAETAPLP
test-protocol: biochemical
Set-up: purchased Perkin Elmer, Shelton, Conn; host or cells: HEK-293 or CHO
experimental-context: HEK-293 or CHO cells; read-out: GTPγS μ EC50
readout-label: EC50 (nM)

compound="COc1ccc2c(c1)[C@]1(CCN[C@@H](C)C(=O)O)CCN(CC3CC3)[C@H](C2)[C@@H]1C [Compound 40]" study_system="μ-opioid receptor (Homo sapiens, UniProt P35372)" readout_label=EC50 unit_descriptor=nM quantitative_readout=1660
compound="C[C@@H]1[C@@H]2Cc3ccc(O)cc3[C@@]1(CCN1CCC(N(C3CC3)S(=O)(=O)c3ccccc3)CC1)CCN2C [Compound 14]" study_system="μ-opioid receptor (Homo sapiens, UniProt P35372)" readout_label=EC50 unit_descriptor=nM quantitative_readout=11900
compound="C[C@H]1[C@H]2Cc3ccc(O)cc3[C@]1(CCNC(=O)NC(c1ccccc1)c1ccccc1)CCN2C [Compound 73]" study_system="μ-opioid receptor (Homo sapiens, UniProt P35372)" readout_label=EC50 unit_descriptor=nM quantitative_readout=3.64
compound="COc1ccc2c(c1)[C@]1(CCNC(=O)[C@@H]3CCCN3C(C)=O)CCN(CC3CC3)[C@H](C2)[C@@H]1C [Compound 5]" study_system="μ-opioid receptor (Homo sapiens, UniProt P35372)" readout_label=EC50 unit_descriptor=nM quantitative_readout=468
compound="CCOC(=O)c1ccc(NC(=O)NCC[C@]23CCN(CC4CC4)[C@H](Cc4ccc(OC)cc42)[C@@H]3C)cc1 [Compound 1]" study_system="μ-opioid receptor (Homo sapiens, UniProt P35372)" readout_label=EC50 unit_descriptor=nM quantitative_readout=4.21
compound="COc1ccc2c(c1)[C@]1(CCOCc3ccccc3)CCN(CC3CC3)[C@H](C2)[C@@H]1C [Compound 45]" study_system="μ-opioid receptor (Homo sapiens, UniProt P35372)" readout_label=EC50 unit_descriptor=nM quantitative_readout=267
compound="C[C@H]1[C@H]2Cc3ccc(O)cc3[C@]1(CCNC(=O)[C@@H]1CCCCN1)CCN2CC1CC1 [Compound 11]" study_system="μ-opioid receptor (Homo sapiens, UniProt P35372)" readout_label=EC50 unit_descriptor=nM quantitative_readout=18.3
compound="C[C@H]1[C@H]2Cc3ccc(O)cc3[C@]1(CCNCCc1ccc(S(N)(=O)=O)cc1)CCN2C [Compound 59]" study_system="μ-opioid receptor (Homo sapiens, UniProt P35372)" readout_label=EC50 unit_descriptor=nM quantitative_readout=369
compound="C[C@H]1[C@H]2Cc3ccc(O)cc3[C@]1(CCNS(C)(=O)=O)CCN2C [Compound 13]" study_system="μ-opioid receptor (Homo sapiens, UniProt P35372)" readout_label=EC50 unit_descriptor=nM quantitative_readout=285
compound="COC(=O)[C@@H](NCC[C@@]12CCN(CC3CC3)[C@@H](Cc3ccc(OC)cc31)[C@H]2C)C(C)C [Compound 37]" study_system="μ-opioid receptor (Homo sapiens, UniProt P35372)" readout_label=EC50 unit_descriptor=nM quantitative_readout=9390
compound="C[C@H]1[C@H]2Cc3ccc(O)cc3[C@]1(CCNC(=O)Nc1ccc(F)cc1)CCN2C [Compound 76]" study_system="μ-opioid receptor (Homo sapiens, UniProt P35372)" readout_label=EC50 unit_descriptor=nM quantitative_readout=28.8
compound="COc1ccc2c(c1)[C@]1(CCNC(=O)[C@@H]3CCC(=O)N3)CCN(C)[C@H](C2)[C@@H]1C [Compound 84]" study_system="μ-opioid receptor (Homo sapiens, UniProt P35372)" readout_label=EC50 unit_descriptor=nM quantitative_readout=12400
compound="C[C@H]1[C@H]2Cc3ccc(O)cc3[C@]1(CCNC(=O)Nc1ccccc1F)CCN2C [Compound 78]" study_system="μ-opioid receptor (Homo sapiens, UniProt P35372)" readout_label=EC50 unit_descriptor=nM quantitative_readout=33.5
compound="C[C@H]1[C@H]2Cc3ccc(O)cc3[C@]1(CC(=O)NCCc1ccc(S(N)(=O)=O)cc1)CCN2C [Compound 62]" study_system="μ-opioid receptor (Homo sapiens, UniProt P35372)" readout_label=EC50 unit_descriptor=nM quantitative_readout=538
compound="CC(C)[C@H](NCC[C@@]12CCN(CC3CC3)[C@@H](Cc3ccc(O)cc31)[C@H]2C)C(=O)O [Compound 42]" study_system="μ-opioid receptor (Homo sapiens, UniProt P35372)" readout_label=EC50 unit_descriptor=nM quantitative_readout=2390

====

study-system: μ-opioid receptor (Homo sapiens, UniProt P35372)
test-protocol: cell-based
Design: purchased Perkin Elmer, Shelton, Conn
experimental-context: U2OS cells; read-out: β-Arr2 μ Emax
readout-label: Emax (%)

substance_smiles=C[C@H]1[C@H]2Cc3ccc(O)cc3[C@]1(CCNS(C)(=O)=O)CCN2C quantitative_readout=-1
substance_smiles=COC(=O)[C@H](CCCCN)NCCCC[C@]12CCN(CC3CC3)[C@H](Cc3ccc(O)cc31)[C@@H]2C quantitative_readout=0
substance_smiles=C[C@H]1[C@H]2Cc3ccc(O)cc3[C@]1(CCNC(=O)Nc1ccccc1F)CCN2C quantitative_readout=67
substance_smiles=C[C@H]1[C@H]2Cc3ccc(O)cc3C1(CCN[C@H]1C[C@H]3CCC[C@@H](C1)N3[C@@H]1C[C@@H]3CCCC[C@@H](C3)C1)CCN2C quantitative_readout=21.8
substance_smiles=COc1ccc2c(c1)[C@]1(CCOCc3ccccc3)CCN(CC3CC3)[C@H](C2)[C@@H]1C quantitative_readout=1.33
substance_smiles=C[C@H]1[C@H]2Cc3ccc(O)cc3[C@]1(CCCCN[C@@H](Cc1ccccc1)C(N)=O)CCN2CC1CC1 quantitative_readout=-1.5
substance_smiles=C[C@H]1[C@H]2Cc3ccc(O)cc3[C@]1(CCN1CCC(N(C3CC3)S(=O)(=O)c3ccc(Cl)cc3)CC1)CCN2C quantitative_readout=77.7
substance_smiles=C[C@H]1[C@H]2Cc3ccc(O)cc3[C@]1(CCNC(=O)NCc1ccccc1)CCN2CC1CC1 quantitative_readout=30.1
substance_smiles=CC(C)C[C@H](NCCCC[C@]12CCN(CC3CC3)[C@H](Cc3ccc(O)cc31)[C@@H]2C)C(=O)O quantitative_readout=-0.4
substance_smiles=C[C@H]1[C@H]2Cc3ccc(O)cc3[C@]1(CCNC(=O)[C@@H]1CCC(=O)N1)CCN2C quantitative_readout=5.8
substance_smiles=COc1ccc2c(c1)[C@]1(CCNC(=O)[C@@H]3CCCN3C(C)=O)CCN(CC3CC3)[C@H](C2)[C@@H]1C quantitative_readout=-1
substance_smiles=C[C@H]1[C@H]2Cc3ccc(O)cc3[C@]1(CC(=O)NCCc1ccc(S(N)(=O)=O)cc1)CCN2C quantitative_readout=-1
substance_smiles=C[C@H]1[C@H]2Cc3ccc(O)cc3[C@]1(CCNCCc1ccc(S(N)(=O)=O)cc1)CCN2C quantitative_readout=-1
substance_smiles=C[C@H]1[C@H]2Cc3ccc(O)cc3[C@]1(CCN1CCC(N(C3CC3)S(=O)(=O)c3ccccc3)CC1)CCN2C quantitative_readout=23.4
substance_smiles=C[C@H]1[C@H]2Cc3ccc(O)cc3[C@]1(CCCCN[C@@H](CCCCN)C(=O)O)CCN2CC1CC1 quantitative_readout=-1.4

====

study-system: μ-opioid receptor (Homo sapiens, UniProt P35372)
test-protocol: cell-based
Parameters: purchased Perkin Elmer, Shelton, Conn
experimental-context: U2OS cells; read-out: β-Arr2 μ EC50
readout-label: EC50 (nM)

molecule="C[C@H]1[C@H]2Cc3ccc(O)cc3[C@]1(CCNC(=O)c1ccc(C(N)=O)cc1)CCN2C [Compound 86]" study_system="μ-opioid receptor (Homo sapiens, UniProt P35372)" quantitative_readout=289
molecule="C[C@H]1[C@H]2Cc3ccc(O)cc3[C@]1(CCNC(=O)NS(=O)(=O)c1ccc(F)cc1)CCN2C [Compound 66]" study_system="μ-opioid receptor (Homo sapiens, UniProt P35372)" quantitative_readout=2290
molecule="C[C@H]1[C@H]2Cc3ccc(O)cc3[C@]1(CCNC(=O)[C@@H]1CCC(=O)N1)CCN2C [Compound 72]" study_system="μ-opioid receptor (Homo sapiens, UniProt P35372)" quantitative_readout=267
molecule="COc1ccc2c(c1)[C@]1(CCOCc3ccccc3)CCN(C)[C@H](C2)[C@@H]1C [Compound 48]" study_system="μ-opioid receptor (Homo sapiens, UniProt P35372)" quantitative_readout=4380
molecule="C[C@H]1[C@H]2Cc3ccc(O)cc3[C@]1(CCN1CCC(N(C3CC3)S(=O)(=O)c3ccccc3)CC1)CCN2C [Compound 7]" study_system="μ-opioid receptor (Homo sapiens, UniProt P35372)" quantitative_readout=503
molecule="C[C@H]1[C@H]2Cc3ccc(O)cc3C1(CCN[C@H]1C[C@H]3CCC[C@@H](C1)N3[C@@H]1C[C@@H]3CCCC[C@@H](C3)C1)CCN2C [Compound 63]" study_system="μ-opioid receptor (Homo sapiens, UniProt P35372)" quantitative_readout=1.23
molecule="C[C@H]1[C@H]2Cc3ccc(O)cc3[C@]1(CCN1CCC(N(C3CC3)S(=O)(=O)c3ccc(Cl)cc3)CC1)CCN2C [Compound 58]" study_system="μ-opioid receptor (Homo sapiens, UniProt P35372)" quantitative_readout=2140
molecule="C[C@H]1[C@H]2Cc3ccc(O)cc3[C@]1(CCNC(=O)NCc1ccccc1)CCN2CC1CC1 [Compound 21]" study_system="μ-opioid receptor (Homo sapiens, UniProt P35372)" quantitative_readout=0.38
molecule="C[C@H]1[C@H]2Cc3ccc(O)cc3[C@]1(CCNC(=O)Nc1ccccc1)CCN2C [Compound 68]" study_system="μ-opioid receptor (Homo sapiens, UniProt P35372)" quantitative_readout=18.9
molecule="C[C@H]1[C@H]2Cc3ccc(O)cc3C1(CCNS(=O)(=O)N(C)C)CCN2C [Compound 80]" study_system="μ-opioid receptor (Homo sapiens, UniProt P35372)" quantitative_readout=1180
molecule="C[C@H]1[C@H]2Cc3ccc(O)cc3[C@]1(CCNC(=O)Nc1ccc(F)cc1)CCN2C [Compound 76]" study_system="μ-opioid receptor (Homo sapiens, UniProt P35372)" quantitative_readout=28.4
molecule="C[C@H]1[C@H]2Cc3ccc(O)cc3[C@]1(CCN1CCS(=O)(=O)CC1)CCN2C [Compound 10]" study_system="μ-opioid receptor (Homo sapiens, UniProt P35372)" quantitative_readout=129
molecule="C[C@H]1[C@H]2Cc3ccc(O)cc3[C@]1(CCNS(=O)(=O)c1ccc(F)cc1)CCN2C [Compound 69]" study_system="μ-opioid receptor (Homo sapiens, UniProt P35372)" quantitative_readout=2.97
molecule="C[C@H]1[C@H]2Cc3ccc(O)cc3[C@]1(CCN1CCN(C(c3ccc(F)cc3)c3ccc(F)cc3)CC1)CCN2C [Compound 8]" study_system="μ-opioid receptor (Homo sapiens, UniProt P35372)" quantitative_readout=4710
molecule="C[C@H]1[C@H]2Cc3ccc(O)cc3[C@]1(CCNC(=O)c1ccc(F)cc1)CCN2C [Compound 83]" study_system="μ-opioid receptor (Homo sapiens, UniProt P35372)" quantitative_readout=13.8
